# System: Escherichia coli TOP10
# method-notes: shrunken log2 fold change of peptide-encoding DNA abundance (4.5 h post-induction vs induction); higher = less antimicrobial activity (less host growth inhibition)
# measurement-context: time post-induction: 4.5 h; library: site-saturation at positions 5, 18, 19, 20
The following sequences are listed with their measured shrunken log2 fold change values.
metric-name: shrunken log2 fold change

sequence-code: RRIRDRPPRLPRPRPRPKQNPRP
target-desc: Escherichia coli TOP10
reported-result: 0.277
--
sequence-code: RRIRTRPPRLPRPRPRPRNCPRP
target-desc: Escherichia coli TOP10
reported-result: -0.176
--
sequence-code: RRIRTRPPRLPRPRPRPEPCPRP
target-desc: Escherichia coli TOP10
reported-result: 0.0427
--
sequence-code: RRIRIRPPRLPRPRPRPIVGPRP
target-desc: Escherichia coli TOP10
reported-result: 0.00911
--
sequence-code: RRIRGRPPRLPRPRPRPKSAPRP
target-desc: Escherichia coli TOP10
reported-result: 0.781
--
sequence-code: RRIRNRPPRLPRPRPRPWNKPRP
target-desc: Escherichia coli TOP10
reported-result: -0.184
--
sequence-code: RRIRMRPPRLPRPRPRPCPNPRP
target-desc: Escherichia coli TOP10
reported-result: 0.0197
--
sequence-code: RRIRYRPPRLPRPRPRPVSDPRP
target-desc: Escherichia coli TOP10
reported-result: -0.379
--
sequence-code: RRIRKRPPRLPRPRPRPHLFPRP
target-desc: Escherichia coli TOP10
reported-result: 0.205
--
sequence-code: RRIRTRPPRLPRPRPRPCNIPRP
target-desc: Escherichia coli TOP10
reported-result: 0.048
--
sequence-code: RRIRHRPPRLPRPRPRPADEPRP
target-desc: Escherichia coli TOP10
reported-result: 0.0084
--
sequence-code: RRIRFRPPRLPRPRPRPCDSPRP
target-desc: Escherichia coli TOP10
reported-result: -0.0928
--
sequence-code: RRIRSRPPRLPRPRPRPFVAPRP
target-desc: Escherichia coli TOP10
reported-result: -0.0664
--
sequence-code: RRIRLRPPRLPRPRPRPAQMPRP
target-desc: Escherichia coli TOP10
reported-result: 0.122
--
sequence-code: RRIRDRPPRLPRPRPRPLMIPRP
target-desc: Escherichia coli TOP10
reported-result: 0.072
--
sequence-code: RRIRVRPPRLPRPRPRPHCRPRP
target-desc: Escherichia coli TOP10
reported-result: 0.199
--
sequence-code: RRIRRRPPRLPRPRPRPNVTPRP
target-desc: Escherichia coli TOP10
reported-result: 0.0871
--
sequence-code: RRIRMRPPRLPRPRPRPLRDPRP
target-desc: Escherichia coli TOP10
reported-result: 2.66
--
sequence-code: RRIRYRPPRLPRPRPRPQSDPRP
target-desc: Escherichia coli TOP10
reported-result: -0.251
--
sequence-code: RRIRFRPPRLPRPRPRPETGPRP
target-desc: Escherichia coli TOP10
reported-result: 0.0907
--
sequence-code: RRIRQRPPRLPRPRPRPDTSPRP
target-desc: Escherichia coli TOP10
reported-result: 0.00601
--
sequence-code: RRIRYRPPRLPRPRPRPNKIPRP
target-desc: Escherichia coli TOP10
reported-result: -0.995
--
sequence-code: RRIRMRPPRLPRPRPRPQEFPRP
target-desc: Escherichia coli TOP10
reported-result: 0.284
--
sequence-code: RRIRYRPPRLPRPRPRPYKNPRP
target-desc: Escherichia coli TOP10
reported-result: -1.42
--
sequence-code: RRIRWRPPRLPRPRPRPCTDPRP
target-desc: Escherichia coli TOP10
reported-result: 0.0992
--
sequence-code: RRIRQRPPRLPRPRPRPLYTPRP
target-desc: Escherichia coli TOP10
reported-result: -0.671
--
sequence-code: RRIRPRPPRLPRPRPRPAQFPRP
target-desc: Escherichia coli TOP10
reported-result: 0.272
--
sequence-code: RRIRQRPPRLPRPRPRPPPAPRP
target-desc: Escherichia coli TOP10
reported-result: 0.804
--
sequence-code: RRIRDRPPRLPRPRPRPVELPRP
target-desc: Escherichia coli TOP10
reported-result: -0.0194
--
sequence-code: RRIRWRPPRLPRPRPRPHQFPRP
target-desc: Escherichia coli TOP10
reported-result: -0.843
--
sequence-code: RRIRVRPPRLPRPRPRPRQQPRP
target-desc: Escherichia coli TOP10
reported-result: 0.168
--
sequence-code: RRIRDRPPRLPRPRPRPPQQPRP
target-desc: Escherichia coli TOP10
reported-result: -0.089
--
sequence-code: RRIRWRPPRLPRPRPRPPDYPRP
target-desc: Escherichia coli TOP10
reported-result: 0.184
--
sequence-code: RRIRFRPPRLPRPRPRPYQRPRP
target-desc: Escherichia coli TOP10
reported-result: -0.238
--
sequence-code: RRIRYRPPRLPRPRPRPWYVPRP
target-desc: Escherichia coli TOP10
reported-result: -1.13
--
sequence-code: RRIRYRPPRLPRPRPRPWKDPRP
target-desc: Escherichia coli TOP10
reported-result: -0.0122
--
sequence-code: RRIRLRPPRLPRPRPRPYSTPRP
target-desc: Escherichia coli TOP10
reported-result: -1.09
--
sequence-code: RRIRKRPPRLPRPRPRPKSNPRP
target-desc: Escherichia coli TOP10
reported-result: 0.112
--
sequence-code: RRIRIRPPRLPRPRPRPCCHPRP
target-desc: Escherichia coli TOP10
reported-result: -0.486
--
sequence-code: RRIRPRPPRLPRPRPRPTTAPRP
target-desc: Escherichia coli TOP10
reported-result: 0.0804
--
sequence-code: RRIRCRPPRLPRPRPRPADNPRP
target-desc: Escherichia coli TOP10
reported-result: -0.219
--
sequence-code: RRIRERPPRLPRPRPRPIAHPRP
target-desc: Escherichia coli TOP10
reported-result: -0.171
--
sequence-code: RRIRNRPPRLPRPRPRPYYWPRP
target-desc: Escherichia coli TOP10
reported-result: -0.367
--
sequence-code: RRIRMRPPRLPRPRPRPDIRPRP
target-desc: Escherichia coli TOP10
reported-result: -0.00649
--
sequence-code: RRIRGRPPRLPRPRPRPRANPRP
target-desc: Escherichia coli TOP10
reported-result: 0.816
--
sequence-code: RRIRCRPPRLPRPRPRPGMVPRP
target-desc: Escherichia coli TOP10
reported-result: 0.0377
--
sequence-code: RRIRPRPPRLPRPRPRPPTWPRP
target-desc: Escherichia coli TOP10
reported-result: 0.302
--
sequence-code: RRIRVRPPRLPRPRPRPRMCPRP
target-desc: Escherichia coli TOP10
reported-result: -0.35
--
sequence-code: RRIRPRPPRLPRPRPRPDCQPRP
target-desc: Escherichia coli TOP10
reported-result: -0.0657
--
sequence-code: RRIRFRPPRLPRPRPRPAVGPRP
target-desc: Escherichia coli TOP10
reported-result: 0.591
--
sequence-code: RRIRYRPPRLPRPRPRPLVSPRP
target-desc: Escherichia coli TOP10
reported-result: -0.113
--
sequence-code: RRIRVRPPRLPRPRPRPVWDPRP
target-desc: Escherichia coli TOP10
reported-result: 0.142
--
sequence-code: RRIRDRPPRLPRPRPRPTDRPRP
target-desc: Escherichia coli TOP10
reported-result: 0.694
--
sequence-code: RRIRARPPRLPRPRPRPNHDPRP
target-desc: Escherichia coli TOP10
reported-result: -0.141
--
sequence-code: RRIRDRPPRLPRPRPRPYRTPRP
target-desc: Escherichia coli TOP10
reported-result: -0.0206
--
sequence-code: RRIRNRPPRLPRPRPRPRKHPRP
target-desc: Escherichia coli TOP10
reported-result: -0.194
--
sequence-code: RRIRYRPPRLPRPRPRPLHAPRP
target-desc: Escherichia coli TOP10
reported-result: 0.000596
--
sequence-code: RRIRMRPPRLPRPRPRPGIVPRP
target-desc: Escherichia coli TOP10
reported-result: 0.332
--
sequence-code: RRIRGRPPRLPRPRPRPSFFPRP
target-desc: Escherichia coli TOP10
reported-result: 0.202
--
sequence-code: RRIRFRPPRLPRPRPRPSTEPRP
target-desc: Escherichia coli TOP10
reported-result: -0.112
--
sequence-code: RRIRNRPPRLPRPRPRPWDCPRP
target-desc: Escherichia coli TOP10
reported-result: -0.118
--
sequence-code: RRIRLRPPRLPRPRPRPCPEPRP
target-desc: Escherichia coli TOP10
reported-result: -0.0401
--
sequence-code: RRIRCRPPRLPRPRPRPCYLPRP
target-desc: Escherichia coli TOP10;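 also: peptides expressed intracellularly from a pBAD plasmid library in pooled LB shake-flask culture, induced with 0.3% L-arabinose, DNA abundance read by NGS, three biological replicates, DESeq2 with apeglm shrinkage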
reported-result: -0.684
